molecules and their reported log10 IC50
Target: UniProtKB P15538
Sequence (P15538 25-503): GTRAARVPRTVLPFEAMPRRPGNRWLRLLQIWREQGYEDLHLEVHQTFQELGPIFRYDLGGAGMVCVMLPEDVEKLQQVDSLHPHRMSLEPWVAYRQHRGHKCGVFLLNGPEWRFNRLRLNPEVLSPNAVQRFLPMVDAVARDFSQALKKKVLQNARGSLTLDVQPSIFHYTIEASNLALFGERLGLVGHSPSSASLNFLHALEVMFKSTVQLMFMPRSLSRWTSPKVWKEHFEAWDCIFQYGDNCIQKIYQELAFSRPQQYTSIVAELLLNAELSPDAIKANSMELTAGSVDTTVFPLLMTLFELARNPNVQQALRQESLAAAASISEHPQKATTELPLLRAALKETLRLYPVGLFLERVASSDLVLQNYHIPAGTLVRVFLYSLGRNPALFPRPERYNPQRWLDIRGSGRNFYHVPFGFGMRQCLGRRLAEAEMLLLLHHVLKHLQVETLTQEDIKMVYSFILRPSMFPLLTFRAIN
Test: Cellular assay for CYP11B1 inhibition (V79MZh11B1 hamster fibroblasts, substrate 11-deoxycorticosterone)
Settings: read-out: IC50 value CYP11B1; Hamster fibroblasts expressing human CYP11B1; substrate 11-deoxycorticosterone, 100 nM; mean of at least three experiments
Form field - Quantity: IC50; Unit: nM; Scale: log10

[[record]]
molecule = "c1ccc2c(-c3ccc(Cn4ccnc4)cn3)cncc2c1 [Compound 30]"
measurementtarget = "UniProtKB P15538"
experimentalvalue = 1.98

[[record]]
molecule = "c1ccc(-c2cc(Cn3ccnc3)cnc2-c2ccccc2)cc1 [Compound 25]"
measurementtarget = "UniProtKB P15538"
experimentalvalue = 2.56

[[record]]
molecule = "Fc1ccc(-c2ccc(Cn3ccnc3)cn2)cc1F [Compound 10]"
measurementtarget = "UniProtKB P15538"
experimentalvalue = 2.52


// log10 IC50 lookup, molecule = c1cncc(-c2ccc(Cn3ccnc3)cn2)c1 [Compound 26, 5-Imidazol-1-ylmethyl-[2,3′]bipyridinyl] , result: 2.70

Per the record, c1ccc2c(-c3ccc(Cn4ccnc4)cn3)csc2c1 [Compound 38] has log10 IC50 of 1.60

Lookup result for c1ccc2sc(-c3ccc(Cn4ccnc4)cn3)cc2c1 [Compound 37] ; measured log10 IC50: 2.43

The recorded log10 IC50 for entry c1cn(Cc2ccc(-c3ccoc3)nc2)cn1 [Compound 40] equals 1.88

Entry Brc1ncccc1Cn1ccnc1 [Compound 5, 2-Bromo-3-imidazol-1-ylmethyl-pyridine] — recorded log10 IC50 = 1.79

Form field log10 IC50, entry N#Cc1ncccc1Cn1ccnc1 [Compound 4] : 2.99

log10 IC50 for c1csc(-c2ncccc2Cn2ccnc2)c1 [Compound 36] is 1.20

Looking up Cc1ccc(-c2ccc(Cn3ccnc3)cn2)cc1N [Compound 18] , I found its log10 IC50 recorded as 2.73

log10 IC50 in this record for Fc1ccc(-c2ccc(Cn3ccnc3)cn2)cc1 [Compound 9] : 2.33

Lookup result for Oc1ccc(-c2ccc(Cn3ccnc3)cn2)cc1F [Compound 11] ; measured log10 IC50: 1.23

Kindly note the recorded log10 IC50 for Clc1ncc(Cn2ccnc2)cc1Br [Compound 6] , which is 2.23

The molecule c1ccc(-c2ccc(Cn3ccnc3)cn2)cc1 [Compound 1, 5-Imidazol-1-ylmethyl-2-phenyl-pyridine] showed log10 IC50 equal to 2.18

For record c1coc(-c2ccc(Cn3ccnc3)cn2)c1 [Compound 39] the listed log10 IC50 is 2.22

###

Target: UniProt:P15538
Assay: Cellular assay for CYP11B1 inhibition (V79MZh11B1 hamster fibroblasts, substrate 11-deoxycorticosterone)
Conditions: ratio IC50 (CYP11B2)/IC50 (CYP11B1)
# sf: selectivity factor: IC50 (CYP11B2)/IC50 (CYP11B1) per record follows

Known results for compounds:
[[record]]
compound = "c1ccc2c(-c3ccc(Cn4ccnc4)cn3)cncc2c1 [Compound 30]"
measurementtarget = "UniProt:P15538"
experimentalvalue = 10

[[record]]
compound = "c1cc(-c2ccc(Cn3ccnc3)cn2)ccn1 [Compound 27, 5-Imidazol-1-ylmethyl-[2,4′]bipyridinyl]"
measurementtarget = "UniProt:P15538"
experimentalvalue = 3.5

[[record]]
compound = "c1ccc(-c2cc(Cn3ccnc3)cnc2-c2ccccc2)cc1 [Compound 35]"
measurementtarget = "UniProt:P15538"
experimentalvalue = 6

[[record]]
compound = "c1ccc2cc(-c3ccc(Cn4ccnc4)cn3)ccc2c1 [Compound 24]"
measurementtarget = "UniProt:P15538"
experimentalvalue = 3.2

[[record]]
compound = "c1ccc2sc(-c3ccc(Cn4ccnc4)cn3)cc2c1 [Compound 37]"
measurementtarget = "UniProt:P15538"
experimentalvalue = 1.0

[[record]]
compound = "c1coc(-c2cc(Cn3ccnc3)cnc2-c2ccco2)c1 [Compound 42]"
measurementtarget = "UniProt:P15538"
experimentalvalue = 29

[[record]]
compound = "c1ccc2c(-c3ccc(Cn4ccnc4)cn3)cccc2c1 [Compound 23]"
measurementtarget = "UniProt:P15538"
experimentalvalue = 49

[[record]]
compound = "c1cncc(-c2ccc(Cn3ccnc3)cn2)c1 [Compound 26, 5-Imidazol-1-ylmethyl-[2,3′]bipyridinyl]"
measurementtarget = "UniProt:P15538"
experimentalvalue = 8


sf: selectivity factor: IC50 (CYP11B2)/IC50 (CYP11B1) measured on c1ccc2c(-c3ccc(Cn4ccnc4)cn3)csc2c1 [Compound 38] = 29
